Reference for the values: paper PMC7946002

Target: Human recombinant CYP2J2 (Homo sapiens, UniProt P51589)
Sequence (P51589 whole entry): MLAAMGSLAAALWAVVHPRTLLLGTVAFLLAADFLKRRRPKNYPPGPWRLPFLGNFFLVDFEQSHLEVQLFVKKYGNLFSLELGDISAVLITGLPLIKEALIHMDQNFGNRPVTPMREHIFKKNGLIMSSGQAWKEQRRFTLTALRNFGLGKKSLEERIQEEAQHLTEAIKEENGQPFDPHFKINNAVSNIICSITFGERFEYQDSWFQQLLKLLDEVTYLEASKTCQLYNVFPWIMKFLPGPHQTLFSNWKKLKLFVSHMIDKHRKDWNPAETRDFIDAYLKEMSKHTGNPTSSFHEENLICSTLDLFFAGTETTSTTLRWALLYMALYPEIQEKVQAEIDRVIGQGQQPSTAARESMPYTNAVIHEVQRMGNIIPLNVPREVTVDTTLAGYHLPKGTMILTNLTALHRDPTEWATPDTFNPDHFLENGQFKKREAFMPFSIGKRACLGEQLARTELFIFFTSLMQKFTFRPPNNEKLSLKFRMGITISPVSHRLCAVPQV
Experiment: Inhibition activity of Piperine derivatives towards CYP2J2 (BnXPI probe, IC50)
Details: CYP2J2 3.75 pmol/mL; BnXPI 4 μM; 30 min; triplicate, mean ± SD; read-out: Inhibitory activity (IC50) CYP2J2
pIC50: −log10 of the molar value.
Give Met when the value for pIC50 is at least 6. Give Not met when it is less.

Solved entries (count: 8):
smiles_repr=O=C(/C=C/C=C/c1ccc2c(c1)OCO2)N1CCCCC1 label_class=Met
smiles_repr=O=C(/C=C/C=C/c1ccc2c(c1)OCO2)N1CCCC1 label_class="Not met"
smiles_repr=O=C(/C=C/C=C/c1ccc2c(c1)OCO2)N1CCOCC1 label_class="Not met"
smiles_repr=O=C(/C=C/C=C/c1ccc2c(c1)OCO2)NCc1ccc(F)cc1 label_class=Met
smiles_repr=C[C@H]1COCCN1C(=O)/C=C/C=C/c1ccc2c(c1)OCO2 label_class="Not met"
smiles_repr=CN(C)CCNC(=O)/C=C/C=C/c1ccc2c(c1)OCO2 label_class="Not met"
smiles_repr=C[C@@H]1COCCN1C(=O)/C=C/C=C/c1ccc2c(c1)OCO2 label_class="Not met"
smiles_repr=O=C(/C=C/C=C/c1ccc2c(c1)OCO2)NC12CC3CC(CC(C3)C1)C2 label_class="Not met"

Ask | Tell me whether pIC50 is at least 6 here: O=C(/C=C/C=C/c1ccc2c(c1)OCO2)NC1CC1
Reply | Not met

Ask | Answer whether pIC50 of CC(C)CN(CC(C)C)C(=O)/C=C/C=C/c1ccc2c(c1)OCO2 is greater than or equal to 6.
Reply | Met
